The measured values listed here are drawn from patent US20260207621A1.

molecular target: KEAP1 C151 (Homo sapiens, UniProt Q14145); construct: treating 500 μg of cell lysate generated from MDA-MB-468 breast cancer cells with DMSO or compound; endogenous in cells; assay: Nrf2 TMT measurement: in vitro TE50 for KEAP1 C151 (IA-DTB competition, targeted TMT mass spectrometry) in MDA-MB-468 cell lysate; settings: in vitro target engagement of KEAP1 C151, targeted TMT, read-out: KEAP1_C151 TE50
Sequence (Q14145 whole entry): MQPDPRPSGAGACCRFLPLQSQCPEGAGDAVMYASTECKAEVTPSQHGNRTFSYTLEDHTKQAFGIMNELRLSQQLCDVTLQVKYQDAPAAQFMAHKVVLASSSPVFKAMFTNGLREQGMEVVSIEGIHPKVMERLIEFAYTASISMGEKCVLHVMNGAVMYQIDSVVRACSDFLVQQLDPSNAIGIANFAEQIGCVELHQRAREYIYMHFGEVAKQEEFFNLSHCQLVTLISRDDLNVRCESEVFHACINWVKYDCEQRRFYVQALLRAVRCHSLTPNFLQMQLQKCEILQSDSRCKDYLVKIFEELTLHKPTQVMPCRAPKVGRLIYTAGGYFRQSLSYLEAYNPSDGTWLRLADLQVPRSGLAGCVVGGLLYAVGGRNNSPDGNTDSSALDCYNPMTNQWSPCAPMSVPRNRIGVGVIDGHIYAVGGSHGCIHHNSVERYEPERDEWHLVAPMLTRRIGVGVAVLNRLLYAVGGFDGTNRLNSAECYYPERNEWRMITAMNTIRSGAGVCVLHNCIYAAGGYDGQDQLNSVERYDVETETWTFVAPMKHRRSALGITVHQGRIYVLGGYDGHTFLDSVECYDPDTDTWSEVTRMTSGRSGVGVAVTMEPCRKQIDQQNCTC
# pIC50 annotations
Reminder that pIC50 means the negative base-10 logarithm of the concentration expressed in mol/L.

In [3]: df
Out[3]:
                                   compound                             tested_target  assay_result
0  C=CC(=O)N1CCOC[C@H]1c1cc(Cl)cc(-c2cc(OC)ccn2)c1 (single isomer, unassigned) [Compound 105]  KEAP1 C151 (Homo sapiens, UniProt Q14145)          7.44

Ask | Given C=CC(=O)N1CCS(=O)(=O)CC1c1cc(Cl)cc(-c2ncnc(N)n2)c1 (single isomer, unassigned) [Compound 205] , respond with its pIC50.
Reply | 7.47

Ask | Given C=CC(=O)N1[C@H](C)COC[C@H]1c1cc(Cl)cc(-c2ncnc(N)n2)c1 (single isomer, unassigned) [Compound 102] , respond with its pIC50.
Reply | 7.36

Ask | Given C=CC(=O)N1CC(C)(C)OC[C@H]1c1cc(Cl)cc(-c2cc(N)ncn2)c1 (single isomer, unassigned) [Compound 149] , respond with its pIC50.
Reply | 7.82

Ask | Given C=CC(=O)N1CCOC[C@H]1c1cc(Cl)cc(-c2cc(N)nc(F)n2)c1 (single isomer, unassigned) [Compound 283] , respond with its pIC50.
Reply | 7.74

Ask | Given C=CC(=O)N1CCOC[C@H]1c1cc(Cl)cc(-n2cnc(N)n2)c1 [Compound 215] , respond with its pIC50.
Reply | 6.46

Ask | Given C=CC(=O)N1CCOC[C@H]1c1cc(Cl)cc(-c2ccnc(N3CCCC3=O)c2)c1 (single isomer, unassigned) [Compound 12] , respond with its pIC50.
Reply | 8.41

Ask | Given C=CC(=O)N1CCOC[C@H]1c1cc(Cl)cc(-c2cc(N)[nH]n2)c1 (single isomer, unassigned) [Compound 235] , respond with its pIC50.
Reply | 6.96

Ask | Given C=CC(=O)N1CC[C@@](C)(O)C[C@@H]1c1cc(Cl)cc(-c2ncc(N)cn2)c1 (single isomer, unassigned) [Compound 264] , respond with its pIC50.
Reply | 6.80
